Target: 11β-HSD1 (Homo sapiens, UniProt P28845)
Sequence (P28845 whole entry): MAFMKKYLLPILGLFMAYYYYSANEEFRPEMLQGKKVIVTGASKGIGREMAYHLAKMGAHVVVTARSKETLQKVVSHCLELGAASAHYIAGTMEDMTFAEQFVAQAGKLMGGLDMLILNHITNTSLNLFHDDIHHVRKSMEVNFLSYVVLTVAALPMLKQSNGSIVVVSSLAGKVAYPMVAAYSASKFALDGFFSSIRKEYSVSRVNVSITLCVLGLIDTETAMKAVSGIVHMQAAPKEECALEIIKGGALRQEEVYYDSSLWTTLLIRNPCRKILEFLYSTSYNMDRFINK
Experiment: biochemical
Conditions: IC50 Range, Biological Test Example 1; microsomes from CHO cells overexpressing human 11β-HSD1
Below, each entry is listed with its recorded IC50.

Before answering, review these 4 worked examples.
Per the records, this compound ( CC1(c2ccccc2)CCN(c2cccc(-c3cccc(-c4nnn[nH]4)c3)c2)C(=O)O1 (centres unmarked) ) has IC50 equal to 100 to 1000 nM

Per the records, this compound ( CC1(c2ccccc2)CCN(c2cccc(-c3ccccc3NS(C)(=O)=O)c2)C(=O)O1 (centres unmarked) ) has IC50 equal to 100 to 1000 nM

Per the records, this compound ( C[C@@H](c1ccccc1)N1CCC(C)(c2ccccc2)OC1=O (single isomer, unassigned) [EXAMPLE 82 Isomer 1] ) has IC50 equal to < 100 nM

Per the records, this compound ( "C[C@@H](c1ccc(F)cc1)N1CC[C@](CCC(N)=O)(c2ccccc2)OC1=O" ) has IC50 equal to < 100 nM

Here's the next entry for you.
Per the records, this compound ( "C[C@@H](c1ccc(Cl)cc1)N1CC[C@](CCCNS(C)(=O)=O)(c2ccccc2)OC1=O" ) has IC50 equal to < 100 nM

###

Biological target: 11β-HSD1 (Homo sapiens, UniProt P28845)
Assay: biochemical
Conditions: read-out: Average % inhibition at 111.1 nM, Biological Test Example 1; 111.1 nM compound
Tick Condition met if inhibition at 0.1111 µM is 80% or greater. Tick Condition not met if inhibition at 0.1111 µM is less than 80%.

Please tell me: is the compound C=CC[C@]1(c2ccc(F)cc2)CCN([C@@H](C)c2ccccc2)C(=O)O1 (single isomer, unassigned) [EXAMPLE 95 Isomer 1] at or over 80% in terms of inhibition at 0.1111 µM? Condition met

Please tell me: is the compound O=C1OC(CCO)(c2ccccc2F)CCN1c1ccc(Cl)c(-c2ccc(F)cc2F)n1 (stereo not drawn) [EXAMPLE 135] at or over 80% in terms of inhibition at 0.1111 µM? Condition met

***
Please tell me: is the compound CC1(c2ccccc2)CCN(c2cccc(-c3cccc(S(C)(=O)=O)c3)c2)C(=O)O1 (stereo not drawn) [EXAMPLE 40] at or over 80% in terms of inhibition at 0.1111 µM? Condition not met

Please tell me: is the compound CS(=O)(=O)NCCC1(c2ccccc2)CCN(c2cccc(-c3ccc(F)cc3F)c2)C(=O)O1 (stereo not drawn) [EXAMPLE 99] at or over 80% in terms of inhibition at 0.1111 µM? Condition not met

Please tell me: is the compound CC1(c2ccccc2)CCN(c2cccc(-c3ccc(S(=O)(=O)N4CCCC4)cc3)c2)C(=O)O1 (stereo not drawn) [EXAMPLE 16] at or over 80% in terms of inhibition at 0.1111 µM? Condition not met

Please tell me: is the compound Cc1ccc(C2(C)CCN([C@@H](C)c3ccccc3)C(=O)O2)cc1 (stereo partly drawn) [EXAMPLE 88] at or over 80% in terms of inhibition at 0.1111 µM? Condition met

Please tell me: is the compound COc1cccc(-c2cccc(N3CCC(C)(c4ccccc4)OC3=O)c2)c1 (stereo not drawn) [EXAMPLE 34] at or over 80% in terms of inhibition at 0.1111 µM? Condition not met

Please tell me: is the compound C=CC[C@]1(c2ccc(F)cc2)CCN([C@@H](C)c2ccc(C(=O)NC)cc2)C(=O)O1 [EXAMPLE 155] at or over 80% in terms of inhibition at 0.1111 µM? Condition not met

###

Target: 11β-HSD1 (Homo sapiens, UniProt P28845)
Assay: biochemical
Details: read-out: Average % inhibition at 100 nM, Biological Test Example 1; 100 nM compound
Observable: inhibition at 0.1 µM

Before answering, review these 8 worked examples.
Per the records, this molecule ( CC(O)C[C@]1(c2ccc(F)cc2)CCN([C@@H](C)c2ccc(Cl)cc2)C(=O)O1 (single isomer, unassigned) [EXAMPLE 203 Isomer 1] ) has inhibition at 0.1 µM equal to 88.6%

Per the records, this molecule ( "C=CC[C@]1(c2ccc(F)cc2)CCN([C@@H](C)c2ccc(N3CCN(C)CC3)cc2)C(=O)O1" ) has inhibition at 0.1 µM equal to 57%

Per the records, this molecule ( "C[C@@H](c1ccccc1F)N1CC[C@](CCCO)(c2ccc(F)cc2)OC1=O" ) has inhibition at 0.1 µM equal to 97.7%

Per the records, this molecule ( "COC(=O)c1ccc([C@H](C)N2CC[C@](CCCO)(c3ccc(F)cc3)OC2=O)cc1" ) has inhibition at 0.1 µM equal to 86.3%

Per the records, this molecule ( "C[C@@H](c1ccc(-c2ccc(F)cc2F)cc1)N1CC[C@](CCC(N)=O)(c2ccccc2)OC1=O" ) has inhibition at 0.1 µM equal to 97.1%

Per the records, this molecule ( CC1(c2ccccc2)CCN(c2cccc(-c3cccc(Cl)c3)c2)C(=O)O1 (stereo not drawn) ) has inhibition at 0.1 µM equal to 93.4%

Per the records, this molecule ( "C[C@@H](C1CCCCC1)N1CC[C@](CCCO)(c2ccc(F)cc2)OC1=O" ) has inhibition at 0.1 µM equal to 94.1%

Per the records, this molecule ( "C[C@@H](c1ccc(N2CCCCS2(=O)=O)cc1)N1CC[C@](CCO)(c2ccc(F)cc2)OC1=O" ) has inhibition at 0.1 µM equal to 43.1%

***
Per the records, this molecule ( CC(N)c1ccc(-c2ccc([C@H](C)N3CC[C@](CCCO)(c4ccccc4)OC3=O)cc2)s1 (stereo partly drawn) ) has inhibition at 0.1 µM equal to 90.9%

Per the records, this molecule ( "C[C@@H](c1ccc(-c2ccc(F)cc2F)cc1)N1CC[C@](CCC(C)(C)O)(c2ccccc2)OC1=O" ) has inhibition at 0.1 µM equal to 94.1%

Per the records, this molecule ( NC(=O)CC1(c2ccccc2)CCN(c2cccc(-c3ccc(F)cc3F)c2)C(=O)O1 (stereo not drawn) ) has inhibition at 0.1 µM equal to 81%

Per the records, this molecule ( C=CCC1(c2ccc(F)cc2)CCN([C@@H](CC)c2ccc(Br)cc2)C(=O)O1 (single isomer, unassigned) [EXAMPLE 130 Isomer 1] ) has inhibition at 0.1 µM equal to 92.2%

###

Biological target: 11β-HSD1 (Homo sapiens)
Experiment: biochemical
Settings: read-out: Average % inhibition at 111.1 nM, Biological Test Example 1; 111.1 nM compound
Tick fulfilled if inhibition at 0.1111 µM is 40% or greater. Tick not fulfilled if inhibition at 0.1111 µM is less than 40%.

Reference set, count: 4
Please tell me: is the compound "C[C@@H](c1ccc(C(=O)O)cc1)N1CC[C@](CCCO)(c2ccc(F)cc2)OC1=O" at or over 40% in terms of inhibition at 0.1111 µM? not fulfilled

Please tell me: is the compound CC[C@@H](c1ccc(Br)cc1)N1CCC(CCO)(c2ccc(F)cc2)OC1=O (single isomer, unassigned) [EXAMPLE 143 Isomer 1] at or over 40% in terms of inhibition at 0.1111 µM? fulfilled

Please tell me: is the compound CN(C)C(=O)c1ccc(-c2cccc(N3CCC(C)(c4ccccc4)OC3=O)c2)cc1 (centres unmarked) at or over 40% in terms of inhibition at 0.1111 µM? not fulfilled

Please tell me: is the compound "C[C@@H](c1ccc(-c2ccc(F)cc2F)cc1)N1CC[C@](CC(=O)O)(c2ccc(F)cc2)OC1=O" at or over 40% in terms of inhibition at 0.1111 µM? fulfilled

Here's the next entry for you.
Please tell me: is the compound C=CCC1(c2cccs2)CCN([C@@H](C)c2ccc(-c3ccc(F)cc3)cc2)C(=O)O1 (single isomer, unassigned) [EXAMPLE 160 Isomer 1] at or over 40% in terms of inhibition at 0.1111 µM? fulfilled

###

Molecular target: 11β-HSD1 (Homo sapiens)
Experiment: biochemical
Conditions: IC50 Range, Biological Test Example 1; microsomes from CHO cells overexpressing human 11β-HSD1
pIC50: −log10 of the molar value.
Below, each entry is listed with its recorded pIC50.

Before answering, review these 4 worked examples.
Reading of pIC50 for C=CCCC1(c2ccc(F)cc2)CCN([C@@H](C)c2ccc(OC(F)F)cc2)C(=O)O1 (single isomer, unassigned) [EXAMPLE 323 Isomer 1] with 11β-HSD1 (Homo sapiens): > 7.00

Reading of pIC50 for CC1(c2ccccc2)CCN(c2cccc(-c3cccc(N)c3)c2)C(=O)O1 (stereo not shown) with 11β-HSD1 (Homo sapiens): 6.00 to 7.00

Reading of pIC50 for CC(CO)C[C@]1(c2ccc(F)cc2)CCN([C@@H](C)c2ccc(Br)cc2)C(=O)O1 (single isomer, unassigned) [EXAMPLE 577 Isomer 1] with 11β-HSD1 (Homo sapiens): > 7.00

Reading of pIC50 for C[C@@H](c1ccc(-c2ccc(F)cc2)cc1)N1CC[C@](CC(O)CN(C)S(C)(=O)=O)(c2ccc(F)cc2)OC1=O (single isomer, unassigned) [EXAMPLE 278 Isomer 1] with 11β-HSD1 (Homo sapiens): > 7.00

***
Reading of pIC50 for "C[C@@H](c1ccc(OC(F)F)cc1)N1CC[C@](CCO)(c2ccccc2)OC1=O" with 11β-HSD1 (Homo sapiens): > 7.00

Reading of pIC50 for O=C1OC(CCO)(c2ccccc2F)CCN1c1ccc(F)c(-c2ccc(F)cc2F)c1 (stereo not shown) with 11β-HSD1 (Homo sapiens): > 7.00

Reading of pIC50 for "Cc1ccc([C@H](C)N2CC[C@](CCC(N)=O)(c3ccccc3)OC2=O)cc1" with 11β-HSD1 (Homo sapiens): > 7.00

Reading of pIC50 for "Cc1ccc([C@H](C)N2CC[C@](CCCNS(C)(=O)=O)(c3ccc(F)cc3)OC2=O)cc1" with 11β-HSD1 (Homo sapiens): > 7.00

Reading of pIC50 for CC1(c2ccccc2)CCN(c2nccc(-c3c(Cl)cccc3Cl)n2)C(=O)O1 (stereo not shown) with 11β-HSD1 (Homo sapiens): 6.00 to 7.00

Reading of pIC50 for "CC(=O)N(C)CCC[C@]1(c2ccccc2)CCN([C@@H](C)c2ccc(Br)cc2)C(=O)O1" with 11β-HSD1 (Homo sapiens): > 7.00
